Tested on: TTR
Test: TTR editing in primary cyno hepatocytes electroporated with Spy Cas9 protein and dgRNAs (Tables 10, 11)
Format: cell-based, cynomolgus monkey
Details: primary cyno hepatocytes electroporated with Spy Cas9 protein (RNP) and cyno specific dgRNAs
quantity_measured: Avg % Deletion (%)
Write the number in % without appending the unit.

Which Avg % Deletion value belongs to AAAAGGCUGCUGAUGAGACC (tested as dual guide RNA, chemistry not given here) [CR005372] ?
17.16

Field entry: ACUUGUCUUCUCUAUACCCA (tested as dual guide RNA, chemistry not given here) [CR005370]
62.93

Field entry: AAGUGACUUCCAGUAAGAUU (tested as dual guide RNA, chemistry not given here) [CR005371]
8.10
